Target: Rvs167, P39743
Sequence (P39743 419-482): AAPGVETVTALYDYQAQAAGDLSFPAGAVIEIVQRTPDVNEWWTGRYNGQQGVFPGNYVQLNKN
Experiment: SPOT array
Settings: median of control spots 2707
Observation Type: SPOT intensity

Here's what some known entries look like.
- Binder: "LTRRFPFLFPFDTRM"
  SPOT intensity: 0
- Binder: "RLSRLLLSLPPESFT"
  SPOT intensity: 0
- Binder: "HHKRRPTTIDVPGLT"
  SPOT intensity: 0
- Binder: "KRKRFNLLLPKPYLT"
  SPOT intensity: 3
- Binder: "NGRRRPKFRVQLSGN"
  SPOT intensity: 0
- Binder: "DFTLPPPPPPPGLDE"
  SPOT intensity: 0
- Binder: "VATSTSPKLPPRGKQ"
  SPOT intensity: 4100
- Binder: "LKHGWKPLRPIKLIS"
  SPOT intensity: 0

I. QRIRKIPGIPLMSVG
II. PPPPPPPPPPLPQSL
Input: Hey, which is lower on measured SPOT intensity, I or II ? Please reply using the label of the selected record.
Output: II
(II: 0, I: 156)

Sourced from paper PMC2756588
